- Assayed target: BRN2 (Homo sapiens, UniProt P20265)
- Sequence (P20265 whole entry): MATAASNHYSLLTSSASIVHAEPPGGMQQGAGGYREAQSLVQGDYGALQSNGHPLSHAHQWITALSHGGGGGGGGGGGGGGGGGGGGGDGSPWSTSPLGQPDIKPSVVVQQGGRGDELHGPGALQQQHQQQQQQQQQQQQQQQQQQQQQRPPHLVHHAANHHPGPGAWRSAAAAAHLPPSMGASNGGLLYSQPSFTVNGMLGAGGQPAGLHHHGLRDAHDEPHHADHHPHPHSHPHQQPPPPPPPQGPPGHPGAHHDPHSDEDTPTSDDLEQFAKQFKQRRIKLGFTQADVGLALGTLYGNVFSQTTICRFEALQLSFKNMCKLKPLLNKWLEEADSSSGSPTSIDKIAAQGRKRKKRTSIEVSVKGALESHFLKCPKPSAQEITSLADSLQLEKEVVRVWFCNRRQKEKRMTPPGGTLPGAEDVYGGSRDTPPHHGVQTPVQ
- Method summary: cell-based
- Experimental parameters: read-out: % BRN2 Inhibition (10 μM), 10 μM compound, 24 hours, 42D^ENZR cells stably expressing BRN2-luciferase reporter; negative = activation
# inhibition at 10 µM values compiled below
Endpoint name: inhibition at 10 µM (%)

In [3]: df
Out[3]:
                                   molecule        endpoint_name  recorded_result
0  FC(F)(F)c1ccc2nc(-c3ccc(-c4ccccc4)o3)[nH]c2c1 [VPC-18-87]  inhibition at 10 µM               85
1  FC(F)(F)n1c(-c2ccc(-c3ccccc3)o2)nc2ccccc21 [VPC-18-103]  inhibition at 10 µM             88.5
2  c1ccc2oc(-c3csc(-c4ccoc4)n3)cc2c1 [VPC-18-76]  inhibition at 10 µM             96.3
3  FC(F)(F)c1ccc2cc(-c3csc(NCC4CC4)n3)oc2c1 [VPC-18-86]  inhibition at 10 µM               32
4  CN1CCN(c2ccc(-c3nc4ccc(C(F)(F)F)cc4n3C)o2)CC1 [VPC-18-102]  inhibition at 10 µM             22.6
5  N#Cc1c(-c2csc(-c3ccco3)n2)oc2ccccc12 [VPC-18-88]  inhibition at 10 µM               76
6  FC(F)(F)c1ccc2cc(-c3csc(C4CCNCC4)n3)oc2c1 [VPC-18-89]  inhibition at 10 µM               65
7  Cn1c(-c2ccc(C3=CCNCC3)o2)nc2ccccc21 [VPC-18-67]  inhibition at 10 µM              -38
8  Cc1c(-c2ccc(-c3ccccc3)o2)oc2ccccc12 [VPC-18-74]  inhibition at 10 µM             96.7
9  Cn1c(-c2ccc(-c3ccc(Br)cc3Cl)o2)nc2ccc(C(F)(F)F)cc21 [VPC-18-34]  inhibition at 10 µM            -0.86

---

- Method summary: Liver microsome metabolic stability, MLM
- Assay type: in vitro ADME
- Experimental parameters: mouse, liver microsomes, pH 7.4; MLM (single value or second of two), 1 μM compound, 0.25 mg/mL protein; read-out: T1/2 in (mins HLM/MLM)
Endpoint name: half-life at 1 µM (min)

In [3]: df
Out[3]:
                                    compound  bound_sign  recorded_result
 0  FC(F)(F)c1ccc2cc(-c3csc(-c4cocn4)n3)oc2c1           =               16
 1   Cn1c(-c2csc(-c3ccccc3F)n2)nc2ccc(F)cc21           =               32
 2    Clc1ccc2cc(-c3coc(-c4ccc[nH]4)n3)oc2c1           =               22
 3       Clc1ccc2cc(-c3csc(-c4ccoc4)n3)oc2c1           =               10
 4   Clc1ccc2cc(-c3nccc(-c4ccc[nH]4)n3)oc2c1           =                8
 5   Clc1ccc2nc(-c3ccc(-c4ccccc4)o3)[nH]c2c1           =                6
 6  FC(F)(F)n1c(-c2ccc(-c3ccccc3)o2)nc2ccccc21           =                9
 7  FC(F)(F)c1ccc2nc(-c3csc(C4=CCOCC4)n3)oc2c1           =               29
 8  Cn1c(-c2ccc(C3CCNCC3)o2)nc2ccc(C(F)(F)F)cc21           >               60
 9  FC(F)(F)c1ccc2cc(-c3csc(NCC4CC4)n3)oc2c1           =               13
10        c1ccc(-c2nc(-c3cc4ccccc4o3)cs2)cc1           =               10
11         c1coc(-c2nc(-c3coc4ccccc34)cs2)c1           =               11
12  Cn1c(-c2ccc(-c3ccccc3)o2)nc2ccc(S(N)(=O)=O)cc21           >               60
13  O=[N+]([O-])c1ccc2nc(-c3csc(-c4ccco4)n3)[nH]c2c1           =               10
14      Clc1ccc2cc(-c3nccc(-c4ccco4)n3)oc2c1           =               13
15  c1ccc2c(c1)CCC2c1cnn(-c2nc3ccccc3s2)c1 (centres unmarked)           =               14
16      CCn1c(-c2ccc(-c3ccccc3)o2)nc2ccccc21           =               13
17       COc1ccc2cc(-c3csc(-c4ccco4)n3)oc2c1           =                9
18         c1ccc2oc(-c3csc(-c4ccoc4)n3)cc2c1           =                9
19   Clc1ccc2cc(-c3cccc(-c4ccc[nH]4)c3)oc2c1           =               11
